Measured Log2 fold-change of gene expression: RPL13A, listed per entry.
# System: angiogenesis genes in dermal microvascular endothelial cells
# assay.explanation: Real time RT-PCR of angiogenesis gene expression during endothelial tube formation
# Format: cell-based
# condition.parameters: 1 μM SM, 24 hours; 2nd listing (r99)
# Method: For gene expression studies, three independent experiments were run for each SM tested. […] Fluorescence was measured in every cycle and a melting curve was run after the PCR by increasing temperature from 50 to 96° C. […] The genes that were monitored were selected based on their relevance to the angiogenesis process. […]

- compound: "CC1CCN(CC[S-])CC1.O.O.[Cl][Pt+]"
  measured.result: 1.5
- compound: "CCC(=O)OCN1C(=O)C=CC1=O"
  measured.result: 0.3
- compound: "COc1cc2cc(c1Cl)N(C)C(=O)CC(OC(=O)C(C)C)C1(C)OC1C(C)C1CC(O)(NC(=O)O1)C(OC)/C=C/C=C(\\C)C2 (stereo not drawn)"
  measured.result: 1.7
- compound: "COC(=O)C1CC(=O)C(C(=O)OC)CC1=O (stereo not drawn)"
  measured.result: 1.2
- compound: "O=C1C(=Cc2ccccc2)C(NC2CCCCC2)c2ccccc21 (stereo not drawn)"
  measured.result: 0.1

Kindly consider the entry below.
What measured Log2 fold-change of gene expression: RPL13A is associated with COc1ccc(CC2C(=O)NC(C)C(=O)N(C)C3Cc4ccc(cc4)Oc4cc(ccc4O)CC(C(=O)NC(C)C(=O)NC(C)C(=O)N2C)N(C)C3=O)cc1 (stereo not drawn) on angiogenesis genes in dermal microvascular endothelial cells? 0.7
